Sourced from PubChem BioAssay (Tox21)

Procedure Details: qHTS assay to identify small molecule that activate the aryl hydrocarbon receptor (AhR) signaling pathway - cell viability counter screen (AID 743086); further: nearly all actives have a fitted effect of over 45% in size
Measurement Setup: HepG2-AhR-luc viability, CellTiter-Fluor, 24 h; series mostly up to 70.3 µM
Results filed as inconclusive are left out. Active and inactive are the calls of the source. The call rests on the fitted dose curve; in most records, active means well fitted cell-killing curve with a large enough effect in the repeat runs; inconclusive means weak or mixed curves, or effect the other way; inactive means flat fitted curve, though single readings scatter.
Possible outcomes: active, inactive

[[record]]
compound = "CNc1ccc(C(=O)CC(O)CCC(C)C2OC(=O)CC(O)CC(=O)CC(O)CC(O)CC(O)CC(O)CC3(O)CC(O)C(C(=O)OC)C(CC(O[C@@H]4O[C@H](C)[C@@H](O)[C@H](N)[C@@H]4O)/C=C/C=C/C=C/C=C/C=C/C=C/C=C/C2C)O3)cc1 (stereo partly drawn)"
class_name = "inactive"

[[record]]
compound = "CCN(CC)CCO[C@H]1CC[C@@]2(C)C(=CC[C@@H]3[C@@H]2CC[C@]2(C)C(=O)CC[C@@H]32)C1"
class_name = "inactive"

[[record]]
compound = "C[C@]12CC[C@@H]3c4ccc(OC(=O)N(CCCl)CCCl)cc4CC[C@H]3[C@@H]1CC[C@@H]2OP(=O)(O)O"
class_name = "inactive"

[[record]]
compound = "Cc1ccccc1-n1c(CF)nc2ccc(N)cc2c1=O"
class_name = "inactive"

[[record]]
compound = "C=C[C@H]1CN2CC[C@H]1C[C@H]2[C@H](OC(=O)OCC)c1ccnc2ccc(OC)cc12"
class_name = "inactive"

[[record]]
compound = "CC(C)NC(C)Cc1ccc(I)cc1 (stereo not drawn)"
class_name = "inactive"

[[record]]
compound = "CC(C)=CCN1CC[C@]2(C)c3cc(O)ccc3C[C@H]1[C@H]2C"
class_name = "inactive"

[[record]]
compound = "CN1[C@@H]2CC[C@H]1CC(OC1c3ccccc3CCc3ccccc31)C2 (stereo partly drawn)"
class_name = "inactive"

[[record]]
compound = "CCOc1ccc2c3c1O[C@H]1[C@@H](O)C=C[C@H]4[C@@H](C2)N(C)CC[C@@]341"
class_name = "inactive"

[[record]]
compound = "CNC1(c2ccccc2Cl)CCCCC1=O (stereo not drawn)"
class_name = "inactive"

[[record]]
compound = "CC(C)(O)[C@@H]1[C@H]2OC(=O)[C@@H]1[C@]1(O)C[C@H]3O[C@]34C(=O)O[C@H]2[C@]14C"
class_name = "inactive"

[[record]]
compound = "CN=C1CN(O)C(c2ccccc2)=c2cc(Cl)ccc2=N1"
class_name = "inactive"

[[record]]
compound = "CC(=O)O[C@H]1C[C@H](O[C@H]2[C@@H](O)C[C@H](O[C@H]3[C@@H](O)C[C@H](O[C@H]4CC[C@@]5(C)[C@H](CC[C@@H]6[C@@H]5C[C@@H](O)[C@]5(C)[C@@H](C7=CC(=O)OC7)CC[C@]65O)C4)O[C@@H]3C)O[C@@H]2C)O[C@H](C)[C@H]1O[C@@H]1O[C@H](CO)[C@@H](O)[C@H](O)[C@H]1O"
class_name = "inactive"

[[record]]
compound = "CCCCc1ccc(C(=O)O)nc1"
class_name = "inactive"

[[record]]
compound = "CCN(CC)/[N+]([O-])=N/O"
class_name = "inactive"

[[record]]
compound = "OC(c1ccccc1)(c1ccccc1)C1CN2CCC1CC2 (stereo not drawn)"
class_name = "inactive"

[[record]]
compound = "COc1cc([C@@H]2c3cc4c(cc3[C@@H](O)[C@H]3COC(=O)[C@H]23)OCO4)cc(OC)c1O"
class_name = "active"

[[record]]
compound = "Cc1ccc(N(SC(F)(Cl)Cl)S(=O)(=O)N(C)C)cc1"
class_name = "active"


* * *

System Under Test: Acetylcholinesterase (Homo sapiens)
Procedure Details: Acetylcholinesterase (AChE) small molecule antagonists: fluorescence cell-based qHTS assay (AID 1347398); further: nearly all actives have a fitted effect of over 50% in size
Measurement Setup: SH-SY5Y cells; AChE activity; series mostly up to 115 µM
Results filed as inconclusive are left out. Calls of active or inactive are those of the source. The call rests on the fitted dose curve.
Possible outcomes: active, inactive

[[record]]
compound = "N#CCCN(CCO)CCO"
class_name = "inactive"

[[record]]
compound = "O=[N+]([O-])c1cc(C(F)(F)F)ccc1Cl"
class_name = "inactive"

[[record]]
compound = "Cc1cc(=O)[nH]c(=S)[nH]1"
class_name = "inactive"

[[record]]
compound = "CC1=CC(=O)CC(C)(C)C1(O)/C=C/C(C)=C\\C(=O)O (centres undefined)"
class_name = "inactive"

[[record]]
compound = "CO[Si](OC)(OC)OC"
class_name = "inactive"

[[record]]
compound = "CCCCCCOC(=O)CCCCCCCC(=O)OCCCCCC"
class_name = "inactive"

[[record]]
compound = "CCCCOCCOCCO"
class_name = "inactive"

[[record]]
compound = "Cc1cc(CCCOc2c(C)cc(-c3noc(C(F)(F)F)n3)cc2C)on1"
class_name = "inactive"

[[record]]
compound = "CC(C)(C)C(=O)CC(=O)C(C)(C)C"
class_name = "inactive"

[[record]]
compound = "CC1=CC(=O)c2ccccc2C1=O"
class_name = "inactive"

[[record]]
compound = "C/C=C(/C(=C/C)c1ccc(O)cc1)c1ccc(O)cc1"
class_name = "inactive"

[[record]]
compound = "O=C1CCCCC1C1CCCCC1 (centres undefined)"
class_name = "inactive"

[[record]]
compound = "CCCCCCCCCCCC(=O)OCC(O)CO (centres undefined)"
class_name = "inactive"

[[record]]
compound = "O=C(O)c1ccc(O)cc1"
class_name = "inactive"

[[record]]
compound = "CCCCCCCCCCCCCCCCC(=O)O"
class_name = "inactive"

[[record]]
compound = "CCCC(=O)O[C@]1(C(=O)CC)CC[C@H]2[C@@H]3CCC4=CC(=O)CC[C@]4(C)[C@H]3[C@@H](O)C[C@@]21C"
class_name = "inactive"

[[record]]
compound = "C=C(C)C(=O)OCCOP(=O)(O)OCCOC(=O)C(=C)C"
class_name = "inactive"

[[record]]
compound = "O=C(Nc1cccc(C(F)(F)F)c1)c1cc(Br)cc(Br)c1O"
class_name = "inactive"

[[record]]
compound = "CCOC(=O)c1ccc(I)cc1"
class_name = "inactive"

[[record]]
compound = "CCC(C)(C)c1ccc(CC(C)CN2C[C@@H](C)O[C@@H](C)C2)cc1 (some centres undefined)"
class_name = "inactive"

[[record]]
compound = "O=C1Nc2ccc([N+](=O)[O-])cc2C1=O"
class_name = "inactive"

[[record]]
compound = "Nc1ccc2c(c1)C(=O)c1ccccc1C2=O"
class_name = "inactive"

[[record]]
compound = "Clc1ccc2c(Cl)ccnc2c1"
class_name = "inactive"

[[record]]
compound = "CC1(C)C(=O)N(Cl)C(=O)N1Cl"
class_name = "inactive"

[[record]]
compound = "CCOc1cc(OCC)c(C(=O)CCC(=O)O)cc1OCC"
class_name = "inactive"

[[record]]
compound = "CCOC(=O)O[C@]1(C(=O)OCCl)CC[C@H]2[C@@H]3CCC4=CC(=O)C=C[C@]4(C)[C@H]3[C@@H](O)C[C@@]21C"
class_name = "inactive"

[[record]]
compound = "O=C1C=CC(=O)O1"
class_name = "inactive"

[[record]]
compound = "COC(c1ccccc1)(c1ccccc1)[C@H](Oc1nc(C)cc(C)n1)C(=O)O"
class_name = "inactive"

[[record]]
compound = "CCO[Si](CCC#N)(OCC)OCC"
class_name = "inactive"

[[record]]
compound = "CC1=CC[C@@H](C(C)(C)O)CC1"
class_name = "inactive"

[[record]]
compound = "CC(C)CCOCCC(C)C"
class_name = "inactive"

[[record]]
compound = "O=P(OC(CCl)CCl)(OC(CCl)CCl)OC(CCl)CCl"
class_name = "inactive"

[[record]]
compound = "CC1CCCC(=O)C1=O (centres undefined)"
class_name = "inactive"

[[record]]
compound = "O=C1C(I)=CC(=C(c2cc(I)c(O)c(I)c2)c2ccccc2C(=O)O)C=C1I"
class_name = "inactive"

[[record]]
compound = "Fc1ccc(C(c2ccc(F)cc2)N2CCNCC2)cc1"
class_name = "inactive"

[[record]]
compound = "Nc1ccc2cc(S(=O)(=O)O)cc(O)c2c1N=Nc1ccccc1C(F)(F)F"
class_name = "inactive"

[[record]]
compound = "Cc1ccc([N+](=O)[O-])c(C)c1"
class_name = "inactive"

[[record]]
compound = "CCC(C)Nc1ccc(NC(C)CC)cc1 (centres undefined)"
class_name = "active"

[[record]]
compound = "CC(CO)c1ccccc1 (centres undefined)"
class_name = "inactive"

[[record]]
compound = "CC(C)CC(=O)CC(C)C"
class_name = "inactive"

[[record]]
compound = "Cc1ccc(C)cc1"
class_name = "inactive"

[[record]]
compound = "CCO[Si](CCCN=C=O)(OCC)OCC"
class_name = "inactive"

[[record]]
compound = "CO/N=C(\\C(=O)O)c1csc(NC(=O)CCl)n1"
class_name = "inactive"

[[record]]
compound = "CC(C)CCCCCCOC(=O)C1CCCCC1C(=O)OCCCCCCC(C)C (centres undefined)"
class_name = "inactive"

[[record]]
compound = "Oc1ccc2c(c1)OCO2"
class_name = "inactive"

[[record]]
compound = "CCCCCCCCOc1ccc(C(=O)c2ccccc2)c(O)c1"
class_name = "inactive"

[[record]]
compound = "CC1(C)CC(=O)CC(C)(C)N1"
class_name = "inactive"

[[record]]
compound = "CN(C)[C@@H]1C(=O)C(C(=O)NCN2CCCC2)=C(O)[C@@]2(O)C(=O)C3=C(O)c4c(O)cccc4[C@@](C)(O)C3C[C@@H]12 (some centres undefined)"
class_name = "inactive"

[[record]]
compound = "NNC(=O)c1ccncc1"
class_name = "inactive"

[[record]]
compound = "CC12CCCC=C1C(=O)OC2=O (centres undefined)"
class_name = "inactive"

[[record]]
compound = "CN1CCCN(C(c2ccccc2)c2ccc(Cl)cc2)CC1 (centres undefined)"
class_name = "inactive"

[[record]]
compound = "CCOC(=O)NCCC[Si](OCC)(OCC)OCC"
class_name = "inactive"

[[record]]
compound = "CC1=CC(C)(C)Nc2ccccc21"
class_name = "inactive"

[[record]]
compound = "O=Cc1ccc([N+](=O)[O-])cc1"
class_name = "inactive"

